Target: Tyrosyl-tRNA synthetase, putative (Trypanosoma cruzi (strain CL Brener)) (UniProt Q4DSP6)
Sequence (Q4DSP6 as listed by the source): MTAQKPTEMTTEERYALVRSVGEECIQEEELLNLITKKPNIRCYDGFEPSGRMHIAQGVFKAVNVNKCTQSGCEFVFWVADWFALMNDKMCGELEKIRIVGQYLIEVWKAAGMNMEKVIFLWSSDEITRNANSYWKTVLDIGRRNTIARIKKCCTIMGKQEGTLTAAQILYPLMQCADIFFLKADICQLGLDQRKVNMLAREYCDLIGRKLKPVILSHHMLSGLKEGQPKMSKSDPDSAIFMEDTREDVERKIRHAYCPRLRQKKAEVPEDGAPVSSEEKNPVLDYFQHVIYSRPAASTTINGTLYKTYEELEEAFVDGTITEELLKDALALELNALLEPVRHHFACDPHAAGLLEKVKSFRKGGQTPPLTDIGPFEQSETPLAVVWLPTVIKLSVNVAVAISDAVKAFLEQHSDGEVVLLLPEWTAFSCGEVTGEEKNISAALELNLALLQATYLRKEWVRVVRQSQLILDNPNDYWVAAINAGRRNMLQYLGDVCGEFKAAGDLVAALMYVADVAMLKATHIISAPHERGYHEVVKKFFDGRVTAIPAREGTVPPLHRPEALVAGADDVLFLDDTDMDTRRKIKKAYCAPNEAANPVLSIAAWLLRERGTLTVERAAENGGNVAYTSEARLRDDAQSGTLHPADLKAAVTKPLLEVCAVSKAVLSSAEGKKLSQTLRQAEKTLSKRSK
Experiment: Trypanosoma cruzi tyrosyl tRNA synthetase (TcYRS) _High Tyrosine SOP
Format: functional
Design: scale not given: in the data most compounds retested in dose-response had high values
Details: 30 µM
readout name: Percent Effect (%)
The answer is to be given in %; state only the numeric part.

Challenge: Let me know recorded Percent Effect for CCC(CNC(=O)c1ccc(Br)o1)N1CCc2ccccc2C1 (stereo not given) , thanks.
Response given: 0.529

Challenge: Quick one: give measured Percent Effect for `CCC1=N[C@@]2(CC[C@@H]3CN(C(=O)NCc4ccccc4)C[C@@H]32)C(=O)N1C`
Response given: 1.58

Challenge: Identify Percent Effect associated with the compound `Cc1ccc(C(=O)N2CCC3(CC2)CCN(CCN(C)C)C3=O)cn1`
Response given: 7.73

Challenge: Item `Cc1cccn2c(=O)cc(OC(=O)c3ccccc3)nc12` : provide Percent Effect
Response given: 0

Challenge: Supply reported Percent Effect belonging to this compound: COc1ccc(C(O)CNC(=O)NCc2csc(C)n2)cc1 (stereo not given)
Response given: 7.92

Challenge: Input `CNC(=O)CCCNCc1c(C)nn(C)c1N(C)C` , output reported Percent Effect.
Response given: 2.39

Challenge: Using the record for Cc1nc(-c2cccc(C(=O)O)c2)cc(C2CCN(C(C)C)C2)n1 (stereo not given) , state its measured Percent Effect.
Response given: 6.35
